Cited source for all entries: patent US20190047966A1

measurement-target: human histamine H4 receptor (Homo sapiens, UniProt Q9H3N8)
Construct: purchased PerkinElmer Inc; host or cells: CHO-K1
Sequence (Q9H3N8 whole entry): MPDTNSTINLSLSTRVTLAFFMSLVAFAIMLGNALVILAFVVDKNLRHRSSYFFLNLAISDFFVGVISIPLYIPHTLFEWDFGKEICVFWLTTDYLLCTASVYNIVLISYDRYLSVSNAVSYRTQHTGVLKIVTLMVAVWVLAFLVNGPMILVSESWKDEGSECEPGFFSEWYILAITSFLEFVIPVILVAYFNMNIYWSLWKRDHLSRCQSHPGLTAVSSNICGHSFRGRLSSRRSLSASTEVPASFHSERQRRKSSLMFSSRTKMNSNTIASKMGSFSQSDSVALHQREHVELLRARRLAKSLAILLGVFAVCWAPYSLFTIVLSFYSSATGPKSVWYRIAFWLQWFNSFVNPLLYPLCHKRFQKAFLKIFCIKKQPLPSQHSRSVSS
protocol-details: Evaluation of Human H4 Receptor Affinity ([3H]histamine binding)
particulars: inhibition constant Ki, CHO-K1 membrane preparation, read-out: Evaluation of H4 Receptor Affinity
Excerpt: Test Example 2: Evaluation of Human H4 Receptor Affinity […]
Where a name gives a salt, the structure may show the parent alone.
parameter: Ki

Here's what some known entries look like.
Given `Nc1nc2c(c(N3CCN(CCOCCOCc4nn[nH]n4)CC3)n1)CCc1cc(OCc3ccc(Cl)cc3)ccc1-2` , state its recorded Ki.
< 0.1 µM

Given Nc1nc2c(c(N3CCN(CCOC[C@H]4CC[C@@H](C(=O)O)C4)CC3)n1)CCc1cc(OCc3ccc(OC(F)(F)F)cc3)ccc1-2 (relative stereo) , state its recorded Ki.
< 0.1 µM

Given Cn1cc(COCCN2CCN(c3nc(N)nc4c3CCc3cc(OCc5ccc(Cl)cc5)ccc3-4)CC2)cc1C(=O)O [Example 156, hydrochloride] , state its recorded Ki.
< 0.1 µM

Given `CN(C)C1CCN(c2nc(N)nc3c2CCc2cc(OCc4ccccc4)ccc2-3)CC1` , state its recorded Ki.
< 0.1 µM

Given `Nc1nc2c(c(N3CCN(CCO[C@H]4C[C@H](C(=O)O)C4)CC3)n1)CCc1cc(OCc3ccc(OC(F)(F)F)cc3)ccc1-2` , state its recorded Ki.
< 0.1 µM

New cases:
Given Nc1nc2c(c(N3CCN(CCOCc4nc(C(=O)O)cs4)CC3)n1)CCc1cc(OCc3ccc(OC(F)(F)F)cc3)ccc1-2 [Example 142, dihydrochloride] , state its recorded Ki.
< 0.1 µM

---

measurement-target: human histamine H4 receptor (Homo sapiens)
Construct: purchased PerkinElmer Inc; host or cells: CHO-K1
protocol-details: Evaluation of H4 Receptor Function ([35S]GTPγS binding)
Type: biochemical
particulars: [35S]GTPγS binding, CHO-K1 membrane, 0.1 μM histamine; read-out: Evaluation of H4 Receptor Function (IC50 value, antagonistic effect)
Counter-ions that a name gives are not always drawn.
parameter: IC50

Given `Nc1nc2c(c(N3CCN(CCOC[C@H]4CC[C@H](C(=O)O)CC4)CC3)n1)CCc1cc(OCc3ccc(Cl)cc3)ccc1-2` , state its recorded IC50.
200 to 2000 nM

New cases:
Given `Nc1nc2c(c(N3CCN(CCOCc4ccc(F)c(C(=O)O)c4)CC3)n1)CCc1cc(OCc3ccc(Cl)cc3)ccc1-2` , state its recorded IC50.
200 to 2000 nM

Given `NC(=O)N1CC(COCCN2CCN(c3nc(N)nc4c3CCc3cc(OCc5ccc(OC(F)(F)F)cc5)ccc3-4)CC2)C1` , state its recorded IC50.
< 200 nM

Given `C[C@]1(C(=O)O)C[C@H](OCCN2CCN(c3nc(N)nc4c3CCc3cc(OCc5ccc(OC(F)(F)F)cc5)ccc3-4)CC2)C1` , state its recorded IC50.
< 200 nM

Given `CN1CCN(c2nc(N)nc3c2CCc2cc(OCc4ccc(F)cc4)ccc2-3)CC1` , state its recorded IC50.
< 200 nM

Given Nc1nc2c(c(N3CCN(CCOCC4CC5(C4)CC(C(=O)O)C5)CC3)n1)CCc1cc(OCc3ccc(Cl)cc3)ccc1-2 (stereo not shown) [Example 152, hydrochloride] , state its recorded IC50.
200 to 2000 nM

Given `CN1CCN(c2nc(N)nc3c2CCc2cc(NS(=O)(=O)c4ccc(OC(F)(F)F)cc4)ccc2-3)CC1` , state its recorded IC50.
200 to 2000 nM

---

measurement-target: human histamine H4 receptor (Homo sapiens)
Construct: purchased PerkinElmer Inc; host or cells: CHO-K1
protocol-details: Evaluation of Human H4 Receptor Affinity ([3H]histamine binding)
particulars: inhibition constant Ki, CHO-K1 membrane preparation, read-out: Evaluation of H4 Receptor Affinity
pKi: −log10 of the molar value.
Reported pKi values follow for various molecules

Given Nc1nc2c(c(N3CCN(CCOCc4cccc(C(=O)O)c4)CC3)n1)CCc1cc(OCc3ccc(Cl)cc3)ccc1-2 [15(b)] , state its recorded pKi.
> 7.00

Given COC(=O)c1cccc(COCCN2CCN(c3nc(N)nc4c3CCc3cc(OCc5ccc(OC(F)(F)F)cc5)ccc3-4)CC2)c1 [16(a)] , state its recorded pKi.
6.30 to 7.00

Given CN1CCN(c2nc(N)nc3c2CCOc2cc(OCc4ccccc4)ccc2-3)CC1 [Example 204] , state its recorded pKi.
> 7.00

Given COC(=O)c1ccc(COCCN2CCN(c3nc(N)nc4c3CCc3cc(OCc5ccc(OC(F)(F)F)cc5)ccc3-4)CC2)o1 [20(a)] , state its recorded pKi.
6.30 to 7.00

Given CCOC(=O)[C@]1(C)C[C@@H](OCCN2CCN(c3nc(N)nc4c3CCc3cc(OCc5ccc(Cl)cc5)ccc3-4)CC2)C1 [25(a)] , state its recorded pKi.
6.30 to 7.00

New cases:
Given CN1CCN(c2nc(N)nc3c2CCc2cc(NS(=O)(=O)c4ccc(OC(F)(F)F)cc4)ccc2-3)CC1 [Example 54] , state its recorded pKi.
> 7.00

Given Nc1nc2c(c(N3CCN(CCOC4CC5C(C4)C5C(=O)O)CC3)n1)CCc1cc(OCc3ccc(OC(F)(F)F)cc3)ccc1-2 (mixture of isomers) [Example 35] , state its recorded pKi.
> 7.00

---

measurement-target: human histamine H4 receptor (Homo sapiens, UniProt Q9H3N8)
Construct: purchased PerkinElmer Inc; host or cells: CHO-K1
protocol-details: Evaluation of H4 Receptor Function ([35S]GTPγS binding)
Format: biochemical
particulars: [35S]GTPγS binding, CHO-K1 membrane, 0.1 μM histamine; read-out: Evaluation of H4 Receptor Function (IC50 value, antagonistic effect)
Description: The antagonistic effect was evaluated by the method described below. Membrane preparation from recombinant CHO-K1 cell expressing the human histamine H4 receptor (PerkinElmer Inc.), 10 μM GDP, 0.1 μM histamine, and the compounds dissolved in DMSO were reacted at 30° C. for 20 minutes in a buffering solution containing 20 mM HEPES, pH 7.4, 100 mM NaCl, 10 mM MgCl2, 1 mM DTT, and 1 mM EDTA on an assay plate. […]
pIC50: −log10 of the molar value. Counter-ions that a name gives are not always drawn.
Reported pIC50 values follow for various compounds

Here's what some known entries look like.
Given Nc1nc2c(c(N3CCN(CCOCc4cccc(C(=O)O)c4)CC3)n1)CCc1cc(OCc3ccc(OC(F)(F)F)cc3)ccc1-2 [16(b)] , state its recorded pIC50.
5.70 to 6.70

Given Nc1nc2c(c(N3CCN(CCOCCOCC(=O)O)CC3)n1)CCc1cc(OCc3ccc(Cl)cc3)ccc1-2 [11(b)] , state its recorded pIC50.
5.70 to 6.70

Given CN(C)[C@H]1CCN(c2nc(N)nc3c2CCc2cc(OCc4ccccc4)ccc2-3)C1 [Example 102] , state its recorded pIC50.
> 6.70

Given Nc1nc2c(c(N3CCN(CCOc4ccc(C(=O)O)cc4)CC3)n1)CCc1cc(OCc3ccc(Cl)cc3)ccc1-2 [19(b)] , state its recorded pIC50.
> 6.70

Given Nc1nc2c(c(N3CCN(CCOCCOCC(=O)O)CC3)n1)CCc1cc(OCc3ccc(OC(F)(F)F)cc3)ccc1-2 [Example 143, formate] , state its recorded pIC50.
> 6.70

Given Nc1nc2c(c(N3CCN(CCOCCSCC(=O)O)CC3)n1)CCc1cc(OCc3ccc(OC(F)(F)F)cc3)ccc1-2 [Example 178] , state its recorded pIC50.
> 6.70

Given Nc1nc2c(c(N3CCN(CCOCc4cc(C(=O)O)ccc4F)CC3)n1)CCc1cc(OCc3ccc(Cl)cc3)ccc1-2 [129(b)] , state its recorded pIC50.
5.70 to 6.70

Given CC(C)(OCCOCCN1CCN(c2nc(N)nc3c2CCc2cc(OCc4ccc(Cl)cc4)ccc2-3)CC1)C(=O)O [Example 122] , state its recorded pIC50.
5.70 to 6.70

New cases:
Given CN1CCN(c2nc(N)nc3c2Cc2ccc(OCc4ccccc4)cc2-3)CC1 [Example 201] , state its recorded pIC50.
> 6.70

Given Nc1nc2c(c(N3CCN(CCO[C@H]4C[C@@H](C(=O)O)C4)CC3)n1)CCc1cc(OCc3ccc(OC(F)(F)F)cc3)ccc1-2 [23(b)] , state its recorded pIC50.
> 6.70

Given [2H]C([2H])(C(=O)O)[C@H]1C[C@@H](OCCN2CCN(c3nc(N)nc4c3CCc3cc(OCc5ccc(OC(F)(F)F)cc5)ccc3-4)CC2)C1 [Example 184] , state its recorded pIC50.
> 6.70

Given Nc1nc2c(c(N3CCN(CCO[C@@H]4CO[C@@H](C(=O)O)C4)CC3)n1)CCc1cc(OCc3ccc(OC(F)(F)F)cc3)ccc1-2 [Example 37] , state its recorded pIC50.
> 6.70

Given Nc1nc2c(c(N3CCN(CCOCc4nn[nH]n4)CC3)n1)CCc1cc(OCc3ccc(Cl)cc3)ccc1-2 [Example 22] , state its recorded pIC50.
5.70 to 6.70

Given CN1CCN(c2nc(N)nc3c2CCc2cc(OCc4ccc(Cl)cc4)ccc2-3)CC1 [Example 1] , state its recorded pIC50.
> 6.70
